experiment: HEK293T cytotoxicity, dose response, cytotoxicity control for miR-122 modulator project, cell-based, activator set, cherry-pick (AID 720690); conditions: HEK293T viability, CellTiter-Glo luminescence, 48 h; series mostly up to 26 µM
Measured potencies and affinities stand elsewhere. Active and inactive are the calls of the source.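 How the source made its calls: active means every repeat run showing a signal drop whose fitted half-maximal concentration is at most twice the top tested concentration; inconclusive means repeat runs disagree, or flat partial drop, or poor fit; inactive means the rest.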
endpoint-name: outcome

Exam item: If you can, please state the reported outcome value of `COCC(=O)Nc1ccc2c(c1)C(=O)N(C)[C@@H]1CC[C@H](CC(=O)NCc3ccccc3F)O[C@H]1CO2` .
Marked response: inactive

Exam item: Param item = `CCS(=O)(=O)Nc1ccc2c(c1)C(=O)N(C)[C@@H]1CC[C@@H](CC(=O)NCCCN3CCOCC3)O[C@@H]1CO2` ; retrieve measured outcome.
Marked response: inactive

Exam item: # lookup: outcome of `CC(C)C(=O)Nc1ccc2c(c1)C(=O)N(C)[C@@H]1CC[C@H](CC(=O)N[C@H](C)c3ccccc3)O[C@@H]1CO2`
Marked response: inactive

Exam item: For the molecule shown here, `C/C=C/c1ccc([C@@H]2[C@@H](CNC(=O)CC)N(Cc3ccccn3)[C@H]2CO)cc1` , give the reported outcome.
Marked response: inactive

Continuing:
Exam item: Which measured outcome value corresponds to CCOC(=O)C1CN(S(=O)(=O)c2ccccc2)CCN1S(=O)(=O)c1ccccc1 (stereo not drawn) ?
Marked response: inactive

Exam item: I am curious: what outcome value has been reported for `C/C=C/c1ccc([C@@H]2[C@@H](CNC(=O)c3ccncc3)N(C(=O)CC)[C@H]2CO)cc1` ?
Marked response: inactive

Exam item: Which outcome is listed for `CN1C(=O)c2cc(NC(=O)Nc3ccccc3Cl)ccc2OC[C@H]2O[C@H](CC(=O)O)CC[C@@H]21` ?
Marked response: inactive

Exam item: Look up outcome for this molecule: `CN1C(=O)c2cc(NC(=O)c3cccc(F)c3)ccc2OC[C@@H]2O[C@@H](CC(=O)Nc3ccccc3)CC[C@@H]21`
Marked response: inactive
